pIC50: −log10 of the molar value.
Notes on pIC50 obtained with UniProtKB P08581.
Sequence (P08581 whole entry): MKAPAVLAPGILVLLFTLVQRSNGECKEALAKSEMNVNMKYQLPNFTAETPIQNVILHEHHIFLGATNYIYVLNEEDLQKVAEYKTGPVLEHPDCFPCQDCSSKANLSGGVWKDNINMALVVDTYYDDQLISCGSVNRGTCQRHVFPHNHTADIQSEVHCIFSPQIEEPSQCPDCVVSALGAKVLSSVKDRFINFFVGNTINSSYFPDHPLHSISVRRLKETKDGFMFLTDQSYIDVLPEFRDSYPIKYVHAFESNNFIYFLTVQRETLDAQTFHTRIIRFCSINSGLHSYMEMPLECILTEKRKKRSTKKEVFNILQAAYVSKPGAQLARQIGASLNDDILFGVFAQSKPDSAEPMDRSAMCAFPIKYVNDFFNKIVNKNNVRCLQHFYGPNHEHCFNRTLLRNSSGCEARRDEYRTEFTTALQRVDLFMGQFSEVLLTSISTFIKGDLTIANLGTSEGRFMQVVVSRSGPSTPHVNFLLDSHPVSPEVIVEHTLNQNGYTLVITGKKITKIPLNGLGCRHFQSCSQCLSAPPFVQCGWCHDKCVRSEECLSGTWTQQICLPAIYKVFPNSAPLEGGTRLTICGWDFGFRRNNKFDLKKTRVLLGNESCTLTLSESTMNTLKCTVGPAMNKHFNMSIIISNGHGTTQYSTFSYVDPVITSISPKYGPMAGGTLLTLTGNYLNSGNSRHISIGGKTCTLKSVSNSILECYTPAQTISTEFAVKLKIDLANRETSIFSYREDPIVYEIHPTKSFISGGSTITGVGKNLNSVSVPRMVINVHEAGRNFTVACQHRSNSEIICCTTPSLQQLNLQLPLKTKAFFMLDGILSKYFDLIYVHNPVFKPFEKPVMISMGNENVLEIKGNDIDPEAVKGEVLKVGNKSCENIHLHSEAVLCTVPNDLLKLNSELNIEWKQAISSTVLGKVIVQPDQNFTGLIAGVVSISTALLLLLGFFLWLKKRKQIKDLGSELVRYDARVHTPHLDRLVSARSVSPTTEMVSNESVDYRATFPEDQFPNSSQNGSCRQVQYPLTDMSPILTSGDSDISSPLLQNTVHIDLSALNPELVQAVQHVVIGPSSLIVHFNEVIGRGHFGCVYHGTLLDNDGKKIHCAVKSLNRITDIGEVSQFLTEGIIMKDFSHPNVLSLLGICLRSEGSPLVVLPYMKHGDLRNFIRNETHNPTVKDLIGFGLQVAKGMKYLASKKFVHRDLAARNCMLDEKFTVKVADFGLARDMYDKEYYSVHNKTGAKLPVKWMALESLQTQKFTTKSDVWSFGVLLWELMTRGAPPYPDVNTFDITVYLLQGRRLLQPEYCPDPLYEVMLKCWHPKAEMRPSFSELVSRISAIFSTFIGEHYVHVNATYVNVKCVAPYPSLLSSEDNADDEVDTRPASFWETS
readout: pIC50

# mol, assayTarget, readout, endpointResult
records = [
    ("COc1ccc(-n2nc(C(=O)Nc3ccc(Oc4ccnc5[nH]ccc45)cc3)c(C)cc2=O)cc1", "UniProtKB P08581", "pIC50", 7.33),
    ("Cc1ccc(C)c(-n2nc(C(=O)Nc3ccc(Oc4ccnc5[nH]ccc45)cc3)c(C)cc2=O)c1", "UniProtKB P08581", "pIC50", 7.47),
    ("Cc1ccccc1-n1nc(C(=O)Nc2ccc(Oc3ccnc4[nH]ccc34)c(F)c2)c(C)cc1=O", "UniProtKB P08581", "pIC50", 7.99),
    ("Cc1cc(=O)n(-c2cccc(Br)c2)nc1C(=O)Nc1ccc(Oc2ccnc3c2ccn3C)cc1", "UniProtKB P08581", "pIC50", 7.98),
    ("Cc1cc(=O)n(-c2ccc(F)c(Cl)c2)nc1C(=O)Nc1ccc(Oc2ccnc3[nH]ccc23)cc1", "UniProtKB P08581", "pIC50", 7.38),
    ("Cc1cc(=O)n(-c2cccc(F)c2)nc1C(=O)Nc1ccc(Oc2ccnc3[nH]ccc23)c(F)c1", "UniProtKB P08581", "pIC50", 8.25),
    ("Cc1cc(=O)n(-c2ccc(F)cc2)nc1C(=O)Nc1ccc(Oc2ccnc3[nH]ccc23)cc1", "UniProtKB P08581", "pIC50", 8.07),
    ("Cc1cc(=O)n(-c2cccc(C(F)(F)F)c2)nc1C(=O)Nc1ccc(Oc2ccnc3c2ccn3C)c(F)c1", "UniProtKB P08581", "pIC50", 7.53),
    ("Cc1cc(=O)n(-c2ccc(Cl)cc2Cl)nc1C(=O)Nc1ccc(Oc2ccnc3[nH]ccc23)cc1", "UniProtKB P08581", "pIC50", 7.25),
]
